Molecular target: T1, CD134 expressed on the cell surface of HT1080_OX40 cells (human, UniProt P43489 29-277); also: test concentration or dose not given here
T1 sequence (looked up): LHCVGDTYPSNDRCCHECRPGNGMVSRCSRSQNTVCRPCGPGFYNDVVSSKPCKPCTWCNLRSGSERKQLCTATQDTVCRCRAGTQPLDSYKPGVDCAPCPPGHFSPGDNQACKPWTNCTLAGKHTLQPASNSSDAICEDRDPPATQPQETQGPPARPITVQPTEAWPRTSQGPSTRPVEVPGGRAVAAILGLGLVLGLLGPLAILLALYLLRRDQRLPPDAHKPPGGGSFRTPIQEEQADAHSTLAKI
Test: cell-based or functional assay
Some binders, each annotated with its measured Functional assay IL-8.
Number in abs. corr., nothing else.

P018.S.04.A.B04 (antibody, V domains shown, V regions on human Ig constant parts; also called AB134_6) VH: QSLEESGGRLVTPGTPLTLTCTASGIDLNNYAMSWVRQAPGKGLEWIGIISGAGYTYYTTWAKGRFTISKTSTTVDLKITSPTTEDTATYFCARIYDSYGYAYVPYYDMDLWGPGTLVTVSS VL: AAVLTQTPSPVSTAVGGTVTINCQSSQSVFMNNYLSWYQQKPGQPPKLLIYDASTLASRVPDRFSGSGSGTQFTLTISGVQSDDAAAYYCLGGYDDDSATTFGGGTEVVVE; 1.99
P018.S.12.A.H01 (antibody, V domains shown, V regions on human Ig constant parts; also called AB134_88) VH: QSVEESGGRLVTPGTPLTLTCTVSGFSLSSYAMSWVRQAPGKGLEWIGDINSYATTYYASWAKGRFTISKTSTTVDLKLTSPTTEDTATYFCAREAGYADLWGQGTLVTVSS VL: AYDMTQTPASVEVAVGGTVTIKCQASQSISRYLSWYQQEPGQRPKLLIYEASTLASGVSSRFKGSGSGTQFTLTISGVESADAATYYCQQDYDSTDVGNTFGGGTEVVVK; 0.43

Consider the additional binder presented here.
INPUT: What value of Functional assay IL-8 has been recorded for this entry: P018.S.02.A.H03 (antibody, V domains shown, V regions on human Ig constant parts; also called AB134_3) VH: QSLEESGGRLVTPGGSLTLTCTVSGIDLSSYGMGWVRQAPGKGLEWIGTISYGGSTFYANWVKGRFTISKTSTTVDLKVTSLTTEDAATYFCAREVPYWSLWGQGTLVTVSS VL: AYDMTQTPASVAAAVGGTVTIKCQASQSIGSDLSWYQQKRGQPPKLLIYDASTLASGVPSRFKGSGSGTEFTLTISDVQSADAATVYCQQDYSYRNVDNTFGGGTEVVVK
OUTPUT: 2.56
